As a worked illustration, we turn to MIC data collected for Trichophyton mentagrophytes.
Write the answer as a number in µg/mL, unit excluded.

CC(=Cc1ccc(OC(=O)NC2CCCCC2)cc1)[N+](=O)[O-] [drawing 16]	0.78

What value of measured MIC is listed for CC(=Cc1cccc(O)c1)[N+](=O)[O-] [drawing 18] ?
1.56

What value of measured MIC is listed for CCCCNC(=O)Oc1ccc(C=C(C)[N+](=O)[O-])cc1 [drawing 15] ?
0.78

What value of measured MIC is listed for CC(=Cc1ccc(OC(=O)Nc2ccc(Br)cc2)c(Cl)c1)[N+](=O)[O-] [drawing 22] ?
1.56

What value of measured MIC is listed for CC(=Cc1ccc(OC(=O)Nc2ccc(Br)cc2)cc1)[N+](=O)[O-] [drawing 14] ?
1.56

What value of measured MIC is listed for CC(=Cc1ccc(OC(=O)Nc2ccc(C)cc2)cc1)[N+](=O)[O-] [drawing 13] ?
3.12

What value of measured MIC is listed for CC(=Cc1ccc(O)c(Cl)c1)[N+](=O)[O-] [drawing 20] ?
1.56

What value of measured MIC is listed for O=[N+]([O-])C=Cc1cc(Cl)ccc1O [drawing 21] ?
6.25

What value of measured MIC is listed for CC(=Cc1ccc(Oc2ncc([N+](=O)[O-])s2)cc1)[N+](=O)[O-] [drawing 19] ?
0.19

---

test system: E.coli
Recorded measurements of MIC, one per entry
Write the answer as a number in µg/mL, unit excluded.

CC(=Cc1ccc(OC(=O)Nc2ccccc2)cc1)[N+](=O)[O-] [drawing 7]	6.25
CC(=Cc1ccc(OC(=O)Nc2ccc(Br)cc2)c(Cl)c1)[N+](=O)[O-] [drawing 12]	50
CC(=Cc1ccc(Oc2ncc([N+](=O)[O-])s2)cc1)[N+](=O)[O-] [drawing 9]	3.12

Alright, here's another compound for you.
Provide the documented MIC with E.coli as the system for CC(=Cc1ccc(OC(=O)Nc2ccc(Br)cc2)cc1)[N+](=O)[O-] [drawing 4]
6.25

---

test system: Phialophora jeanselmei
Recorded measurements of MIC, one per entry
Write the answer as a number in µg/mL, unit excluded.

Before answering, review these 3 worked examples.
CC(=Cc1ccc(O)c(Cl)c1)[N+](=O)[O-] [drawing 20]	3.12
O=[N+]([O-])C=Cc1cc(Cl)ccc1O [drawing 21]	12.5
CC(=Cc1ccc(OC(=O)Nc2ccccc2)cc1)[N+](=O)[O-] [drawing 17]	3.12

Provide the documented MIC with Phialophora jeanselmei as the system for CC(=Cc1ccc(OC(=O)Nc2ccc(C)cc2)cc1)[N+](=O)[O-] [drawing 13]
6.25

Provide the documented MIC with Phialophora jeanselmei as the system for CC(=Cc1ccc(OC(=O)Nc2ccc(Br)cc2)c(Cl)c1)[N+](=O)[O-] [drawing 22]
3.12

---

As a worked illustration, we turn to MIC data collected for microsporum gypseum.

O=[N+]([O-])C=Cc1cc(Cl)ccc1O [drawing 21]	6.25 to 12.5 mg/L
CC(=Cc1ccc(Oc2ncc([N+](=O)[O-])s2)cc1)[N+](=O)[O-] [drawing 19]	0.39 to 0.78 mg/L
CC(=Cc1ccc(OC(=O)Nc2ccc(C)cc2)cc1)[N+](=O)[O-] [drawing 13]	1.56 to 3.12 mg/L

Alright, here's another compound for you.
Provide the documented MIC with microsporum gypseum as the system for CCCCNC(=O)Oc1ccc(C=C(C)[N+](=O)[O-])cc1 [drawing 15]
0.39 to 0.78 mg/L
